system: Candida parapsilosis; assay: Antifungal activity against Candida parapsilosis after 48 hrs by CLSI method; assay type: functional; conditions: Lodderomyces parapsilosis
*1 amine or outer side, *2 acyl side, *3 side chain or, on linkers, in order; H or OH if unused. Where a SMILES comes first, the peptide text is derived from it. Bridges are numbered along the chain shown (N, C = ends). [ ]: non-standard residue; d: D form. The star is where a group is joined. hTyr(3S-OH,4S-OH,3'-OSO3H) = N[C@H](C(=O)O)[C@H](O)[C@@H](O)c1ccc(O)c(OS(=O)(=O)O)c1; Orn(4R-OH,5R-OH) = O=C([C@H](C[C@@H](O)[C@@H](O)N[*:3])N[*:1])[*:2]; Pro(3S-OH,4S-Me) = C[C@H]1CN[C@H](C(=O)O)[C@H]1O; X1 = CCCCCOc1ccc(-c2cc(-c3ccc(C(=O)*)cc3)no2)cc1; Gln(3R-OH) = NC(=O)C[C@@H](O)[C@H](N)C(=O)O; Hyp = O=C(O)[C@@H]1C[C@@H](O)CN1
Listed next: entries and their corresponding MIC90.
Report as a plain number; the unit µg/mL is understood.

Example results:
COMPOUND: CC[C@H](C)C[C@H](C)CCCCCCCCC(=O)N[C@H]1C[C@@H](O)[C@@H](NCCN)NC(=O)[C@@H]2[C@@H](O)CCN2C(=O)[C@H]([C@H](O)CCN)NC(=O)[C@H]([C@H](O)[C@@H](O)c2ccc(O)cc2)NC(=O)[C@@H]2C[C@@H](O)CN2C(=O)[C@H]([C@@H](C)O)NC1=O [CASPOFUNGIN]
MIC90, µg/mL: 2
//
COMPOUND: OC(Cn1cncn1)(Cn1cncn1)c1ccc(F)cc1F [FLUCONAZOLE]
MIC90, µg/mL: 2
//
COMPOUND: CCCCCOc1ccc(-c2cc(-c3ccc(C(=O)N[C@H]4C[C@@H](O)[C@@H](O)NC(=O)[C@@H]5[C@@H](O)[C@@H](C)CN5C(=O)[C@H]([C@H](O)CC(N)=O)NC(=O)[C@H]([C@H](O)[C@@H](O)c5ccc(O)c(OS(=O)(=O)O)c5)NC(=O)[C@@H]5C[C@@H](O)CN5C(=O)[C@H]([C@@H](C)O)NC4=O)cc3)no2)cc1 [MICAFUNGIN] (X1-[Orn(4R-OH,5R-OH)]T[Hyp][hTyr(3S-OH,4S-OH,3'-OSO3H)][Gln(3R-OH)][Pro(3S-OH,4S-Me)]; lactam 1-C)
MIC90, µg/mL: 2
//
COMPOUND: CCC(C)n1ncn(-c2ccc(N3CCN(c4ccc(OCC5COC(Cn6cncn6)(c6ccc(Cl)cc6Cl)O5)cc4)CC3)cc2)c1=O (stereo not given) [ITRACONAZOLE]
MIC90, µg/mL: 0.25

Please look at the following compound next.
**Query** Request the reported MIC90 associated with CC[C@@H]([C@H](C)O)n1ncn(-c2ccc(N3CCN(c4ccc(OC[C@@H]5CO[C@@](Cn6cncn6)(c6ccc(F)cc6F)C5)cc4)CC3)cc2)c1=O [POSACONAZOLE]
**Result** 0.06

* * *

test system: Clavispora lusitaniae; assay: Antifungal activity against Candida lusitaniae after 48 hrs by CLSI method; type: functional
*1 amine or outer side, *2 acyl side, *3 side chain or, on linkers, in order; H or OH if unused. Where a SMILES comes first, the peptide text is derived from it. Bridges are numbered along the chain shown (N, C = ends). [ ]: non-standard residue; d: D form. The star is where a group is joined. pTerphenylCO(4''-OnC5H11) = CCCCCOc1ccc(-c2ccc(-c3ccc(C(=O)*)cc3)cc2)cc1; Orn(4R-OH,5R-OH) = O=C([C@H](C[C@@H](O)[C@@H](O)N[*:3])N[*:1])[*:2]; hTyr(3S-OH,4S-OH) = N[C@H](C(=O)O)[C@H](O)[C@@H](O)c1ccc(O)cc1; Pro(3S-OH,4S-Me) = C[C@H]1CN[C@H](C(=O)O)[C@H]1O; Hyp = O=C(O)[C@@H]1C[C@@H](O)CN1
RECORDED METRIC: MIC50 (µg/mL)
Report as a plain number; the unit µg/mL is understood.

COMPOUND: CCCCCOc1ccc(-c2ccc(-c3ccc(C(=O)N[C@H]4C[C@@H](O)[C@@H](O)NC(=O)[C@@H]5[C@@H](O)[C@@H](C)CN5C(=O)[C@H]([C@@H](C)O)NC(=O)[C@H]([C@H](O)[C@@H](O)c5ccc(O)cc5)NC(=O)[C@@H]5C[C@@H](O)CN5C(=O)[C@H]([C@@H](C)O)NC4=O)cc3)cc2)cc1 [ANIDULAFUNGIN] ({pTerphenylCO(4''-OnC5H11)}-[Orn(4R-OH,5R-OH)]T[Hyp][hTyr(3S-OH,4S-OH)]T[Pro(3S-OH,4S-Me)]; lactam 1-C)
SYSTEM NAME: Clavispora lusitaniae
RECORDED METRIC: MIC50
VAL: 0.06
--
COMPOUND: C[C@@H]1[C@H](O)[C@@H](C)/C=C/C=C/C=C/C=C/C=C/C=C/C=C/[C@H](O[C@@H]2O[C@H](C)[C@@H](O)[C@H](N)[C@@H]2O)C[C@@H]2O[C@](O)(C[C@@H](O)C[C@@H](O)[C@H](O)CC[C@@H](O)C[C@@H](O)CC(=O)O[C@H]1C)C[C@H](O)[C@H]2C(=O)O
SYSTEM NAME: Clavispora lusitaniae
RECORDED METRIC: MIC50
VAL: 1

Please look at the following compound next.
**Query** Short answer please: MIC50, Clavispora lusitaniae, entry CCC(C)n1ncn(-c2ccc(N3CCN(c4ccc(OCC5COC(Cn6cncn6)(c6ccc(Cl)cc6Cl)O5)cc4)CC3)cc2)c1=O (stereo not drawn)
**Result** 0.06

* * *

test system: Candida parapsilosis; test: Antifungal activity against Candida parapsilosis after 48 hrs by CLSI method; assay type: functional; settings: Lodderomyces parapsilosis
*1 amine or outer side, *2 acyl side, *3 side chain or, on linkers, in order; H or OH if unused. Where a SMILES comes first, the peptide text is derived from it. Bridges are numbered along the chain shown (N, C = ends). [ ]: non-standard residue; d: D form. The star is where a group is joined. pTerphenylCO(4''-OnC5H11) = CCCCCOc1ccc(-c2ccc(-c3ccc(C(=O)*)cc3)cc2)cc1; Orn(4R-OH,5R-OH) = O=C([C@H](C[C@@H](O)[C@@H](O)N[*:3])N[*:1])[*:2]; hTyr(3S-OH,4S-OH) = N[C@H](C(=O)O)[C@H](O)[C@@H](O)c1ccc(O)cc1; Pro(3S-OH,4S-Me) = C[C@H]1CN[C@H](C(=O)O)[C@H]1O; Hyp = O=C(O)[C@@H]1C[C@@H](O)CN1
RECORDED METRIC: MIC50 (µg/mL)
Report as a plain number; the unit µg/mL is understood.

**Query** Short answer please: MIC50, Candida parapsilosis, entry CCCCCOc1ccc(-c2ccc(-c3ccc(C(=O)N[C@H]4C[C@@H](O)[C@@H](O)NC(=O)[C@@H]5[C@@H](O)[C@@H](C)CN5C(=O)[C@H]([C@@H](C)O)NC(=O)[C@H]([C@H](O)[C@@H](O)c5ccc(O)cc5)NC(=O)[C@@H]5C[C@@H](O)CN5C(=O)[C@H]([C@@H](C)O)NC4=O)cc3)cc2)cc1 [ANIDULAFUNGIN] ({pTerphenylCO(4''-OnC5H11)}-[Orn(4R-OH,5R-OH)]T[Hyp][hTyr(3S-OH,4S-OH)]T[Pro(3S-OH,4S-Me)]; lactam 1-C)
**Result** 1

**Query** Short answer please: MIC50, Candida parapsilosis, entry CCC(C)n1ncn(-c2ccc(N3CCN(c4ccc(OCC5COC(Cn6cncn6)(c6ccc(Cl)cc6Cl)O5)cc4)CC3)cc2)c1=O (stereo unspecified)
**Result** 0.06

**Query** Short answer please: MIC50, Candida parapsilosis, entry CC[C@@H]([C@H](C)O)n1ncn(-c2ccc(N3CCN(c4ccc(OC[C@@H]5CO[C@@](Cn6cncn6)(c6ccc(F)cc6F)C5)cc4)CC3)cc2)c1=O
**Result** 0.03

* * *

system: Candida albicans; assay: Antifungal activity against Candida albicans after 48 hrs by CLSI method; assay type: functional
*1 amine or outer side, *2 acyl side, *3 side chain or, on linkers, in order; H or OH if unused. Where a SMILES comes first, the peptide text is derived from it. Bridges are numbered along the chain shown (N, C = ends). [ ]: non-standard residue; d: D form. The star is where a group is joined. hTyr(3S-OH,4S-OH,3'-OSO3H) = N[C@H](C(=O)O)[C@H](O)[C@@H](O)c1ccc(O)c(OS(=O)(=O)O)c1; Orn(4R-OH,5R-OH) = O=C([C@H](C[C@@H](O)[C@@H](O)N[*:3])N[*:1])[*:2]; Pro(3S-OH,4S-Me) = C[C@H]1CN[C@H](C(=O)O)[C@H]1O; X1 = CCCCCOc1ccc(-c2cc(-c3ccc(C(=O)*)cc3)no2)cc1; Gln(3R-OH) = NC(=O)C[C@@H](O)[C@H](N)C(=O)O; Hyp = O=C(O)[C@@H]1C[C@@H](O)CN1
RECORDED METRIC: MIC (ng/mL)
Report as a plain number; the unit ng/mL is understood.

**Query** Request the reported MIC associated with CCCCCOc1ccc(-c2cc(-c3ccc(C(=O)N[C@H]4C[C@@H](O)[C@@H](O)NC(=O)[C@@H]5[C@@H](O)[C@@H](C)CN5C(=O)[C@H]([C@H](O)CC(N)=O)NC(=O)[C@H]([C@H](O)[C@@H](O)c5ccc(O)c(OS(=O)(=O)O)c5)NC(=O)[C@@H]5C[C@@H](O)CN5C(=O)[C@H]([C@@H](C)O)NC4=O)cc3)no2)cc1 [MICAFUNGIN] (X1-[Orn(4R-OH,5R-OH)]T[Hyp][hTyr(3S-OH,4S-OH,3'-OSO3H)][Gln(3R-OH)][Pro(3S-OH,4S-Me)]; lactam 1-C)
**Result** 7
